src = ChEMBL document CHEMBL2169825

- assay info: Inhibition of FTase using NBD-GPP as substrate after 10 mins by solution based fluorometric assay
pIC50: −log10 of the molar value.
If the reported pIC50 equals or exceeds 7, assign Yes. If not, assign No.

> print(dat)
                    structure.smiles.string  assigned.category
1  COc1ccc(S(=O)(=O)N2Cc3cc(-c4ccc(Cl)cc4)ccc3N(Cc3cncn3C)C[C@H]2Cc2ccc(O)cc2)cc1                 No
2  COc1ccc(S(=O)(=O)N2Cc3cc(-c4cc(F)cc(F)c4)ccc3N(Cc3cncn3C)C[C@H]2Cc2ccc(O)cc2)cc1                 No
3  COc1ccc(S(=O)(=O)N2Cc3cc(-c4ccc(C#N)o4)ccc3N(Cc3cncn3C)C[C@H]2Cc2ccc(OC(=O)NCc3ccccc3)cc2)cc1                 No
4  COc1ccc(S(=O)(=O)N2Cc3cc(C#N)ccc3N(Cc3cncn3C)C[C@H]2Cc2ccc(-c3cccnc3)cc2)cc1                Yes
5  COc1ccc(S(=O)(=O)N2Cc3cc(-c4ccc(C#N)o4)ccc3N(Cc3cncn3C)C[C@H]2Cc2ccc(OCc3ccccc3)cc2)cc1                 No

* * *

Item-by-item account of pIC50
- assay info: Inhibition of RabGGTase using [3H]GGPP as substrate after 1 hr by scintillation proximity assay
pIC50: −log10 of the molar value.
reported property: pIC50

> print(dat)
                    structure.smiles.string  comparative.sign  assay.result
1  COc1ccc(S(=O)(=O)N2Cc3cc(-c4ccnc(OC)c4)ccc3N(Cc3cncn3C)C[C@H]2Cc2ccc(OC(=O)NCc3ccccc3)cc2)cc1                 =          7.26
2  COc1ccc(S(=O)(=O)N2Cc3cc(C#N)ccc3N(Cc3cncn3C)C[C@H]2Cc2ccc(OCC=C(C)C)cc2)cc1                 =          7.20
3  COc1ccc(S(=O)(=O)N2Cc3cc(-c4cc(F)cc(F)c4)ccc3N(Cc3cncn3C)C[C@H]2Cc2ccc(O)cc2)cc1                 =          6.73
4  COc1ccc(S(=O)(=O)N2Cc3cc(C#N)ccc3N(Cc3cncn3C)C[C@H]2Cc2ccc(O)cc2)cc1                 >          8.40

* * *

- assay info: Inhibition of FTase using NBD-GPP as substrate after 10 mins by solution based fluorometric assay
pIC50: −log10 of the molar value.
reported property: pIC50

> print(dat)
                    structure.smiles.string  comparative.sign  assay.result
1  COc1ccc(S(=O)(=O)N2Cc3cc(-c4ccc(C=O)o4)ccc3N(Cc3cncn3C)C[C@H]2Cc2ccc(-c3ccc(Cl)cc3)cc2)cc1                 <          5.01
2  COc1ccc(S(=O)(=O)N2Cc3cc(C#N)ccc3N(Cc3cncn3C)C[C@H]2Cc2ccc(O)cc2)cc1                 =          8.28
3  COc1ccc(S(=O)(=O)N2Cc3cc(-c4ccc(C=O)o4)ccc3N(Cc3cncn3C)C[C@H]2Cc2ccc(OS(=O)(=O)C(F)(F)F)cc2)cc1                 <          5.01
4  COc1ccc(S(=O)(=O)N2Cc3cc(C#N)ccc3N(Cc3cncn3C)C[C@H]2Cc2ccc(OC/C=C(\C)CCC=C(C)C)cc2)cc1                 =          5.99
5  COc1ccc(S(=O)(=O)N2Cc3cc(-c4ccnc(OC)c4)ccc3N(Cc3cncn3C)C[C@H]2Cc2ccc(Nc3ccccc3)cc2)cc1                 =          5.61
6  COc1ccc(S(=O)(=O)N2Cc3cc(-c4ccnc(OC)c4)ccc3N(Cc3cncn3C)C[C@H]2Cc2ccc(O)cc2)cc1                 =          7.73
7  COc1ccc(S(=O)(=O)N2Cc3cc(-c4ccncc4)ccc3N(Cc3cncn3C)C[C@H]2Cc2ccc(O)cc2)cc1                 =          7.87

* * *

- Tested on: HCT-116
- assay info: Cytotoxicity against human HCT116 cells after 24 hrs by Alamar Blue assay
- Assay type: functional, cell-based
- assay conditions: HCT-116, 24 h
IC50 strictly under 100 nM means Met; at 100 nM or over means Not met.

> print(dat)
                     structure.smiles.string  assigned.category
 1  COc1ccc(S(=O)(=O)N2Cc3cc(-c4ccc(C=O)o4)ccc3N(Cc3cncn3C)C[C@H]2Cc2ccc(OC(=O)NCc3ccccc3)cc2)cc1            Not met
 2  CCCCCCNC(=O)Oc1ccc(C[C@@H]2CN(Cc3cncn3C)c3ccc(C#N)cc3CN2S(=O)(=O)c2ccc(OC)cc2)cc1            Not met
 3  CCCCOc1ccc(C[C@@H]2CN(Cc3cncn3C)c3ccc(C#N)cc3CN2S(=O)(=O)c2ccc(OC)cc2)cc1            Not met
 4  COc1ccc(S(=O)(=O)N2Cc3cc(C#N)ccc3N(Cc3cncn3C)C[C@H]2Cc2ccc(OC/C=C(\C)CCC=C(C)C)cc2)cc1            Not met
 5  CCN(CC)C(=O)Oc1ccc(C[C@@H]2CN(Cc3cncn3C)c3ccc(C#N)cc3CN2S(=O)(=O)c2ccc(OC)cc2)cc1                Met
 6  COc1ccc(S(=O)(=O)N2Cc3cc(C#N)ccc3N(Cc3cncn3C)C[C@H]2Cc2ccc(OCC=C(C)C)cc2)cc1            Not met
 7  COc1ccc(S(=O)(=O)N2Cc3cc(C#N)ccc3N(Cc3cncn3C)C[C@H]2Cc2ccc(OC(=O)NCc3ccccc3)cc2)cc1            Not met
 8  COc1ccc(S(=O)(=O)N2Cc3cc(C#N)ccc3N(Cc3cncn3C)C[C@H]2Cc2ccc(O)cc2)cc1            Not met
 9  COc1ccc(S(=O)(=O)N2Cc3cc(C#N)ccc3N(Cc3cncn3C)C[C@H]2Cc2ccc(OCc3ccccc3)cc2)cc1            Not met
10  COc1ccc(S(=O)(=O)N2Cc3cc(-c4ccc(C#N)o4)ccc3N(Cc3cncn3C)C[C@H]2Cc2ccc(OC(=O)NCc3ccccc3)cc2)cc1                Met
11  COc1ccc(S(=O)(=O)N2Cc3cc(C#N)ccc3N(Cc3cncn3C)C[C@H]2Cc2ccc(-c3cccnc3)cc2)cc1            Not met
12  COc1ccc(S(=O)(=O)N2Cc3cc(-c4ccc(C#N)o4)ccc3N(Cc3cncn3C)C[C@H]2Cc2ccc(OS(=O)(=O)C(F)(F)F)cc2)cc1                Met
13  COc1ccc(S(=O)(=O)N2Cc3cc(-c4ccc(C#N)o4)ccc3N(Cc3cncn3C)C[C@H]2Cc2ccc(O)cc2)cc1                Met
14  COc1ccc(S(=O)(=O)N2Cc3cc(C#N)ccc3N(Cc3cncn3C)C[C@H]2Cc2ccccc2)cc1                Met

* * *

- assay info: Inhibition of RabGGTase using [3H]GGPP as substrate after 1 hr by scintillation proximity assay
Entries and their log10(IC50) values follow.
reported property: log10(IC50) (log10 of the value in µM)

> print(dat)
                    structure.smiles.string  assay.result
1  COc1ccc(S(=O)(=O)N2Cc3cc(-c4ccco4)ccc3N(Cc3cncn3C)C[C@H]2Cc2ccc(O)cc2)cc1         -1.26
2  COc1ccc(S(=O)(=O)N2Cc3cc(N4CCN(C(C)=O)CC4)ccc3N(Cc3cncn3C)C[C@H]2Cc2ccc(O)cc2)cc1         -1.57
3  COc1ccc(S(=O)(=O)N2Cc3cc(-c4ccc(C=O)o4)ccc3N(Cc3cncn3C)C[C@H]2Cc2ccc(OS(=O)(=O)C(F)(F)F)cc2)cc1          0.63
4  COc1ccc(S(=O)(=O)N2Cc3cc(-c4ccc(C#N)o4)ccc3N(Cc3cncn3C)C[C@H]2Cc2ccc(OCc3ccccc3)cc2)cc1         -0.24
5  CCN(CC)C(=O)Oc1ccc(C[C@@H]2CN(Cc3cncn3C)c3ccc(C#N)cc3CN2S(=O)(=O)c2ccc(OC)cc2)cc1         -0.91

* * *

- assay info: Inhibition of RabGGTase in human HeLa cells after 6 hrs by reprenylation assay
- Type: cell-based
Below, each entry is listed with its recorded log10 IC50.
reported property: log10 IC50 (log10 of the value in nM)

> print(dat)
                     structure.smiles.string  assay.result
 1  COc1ccc(S(=O)(=O)N2Cc3cc(-c4ccc(C#N)o4)ccc3N(Cc3cncn3C)C[C@H]2Cc2ccc(O)cc2)cc1          1.04
 2  COc1ccc(S(=O)(=O)N2Cc3cc(-c4ccc(C#N)o4)ccc3N(Cc3cncn3C)C[C@H]2Cc2ccc(OS(=O)(=O)C(F)(F)F)cc2)cc1          1.73
 3  COc1ccc(S(=O)(=O)N2Cc3cc(C#N)ccc3N(Cc3cncn3C)C[C@H]2Cc2ccc(-c3cccnc3)cc2)cc1          2.67
 4  COc1ccc(S(=O)(=O)N2Cc3cc(-c4ccnc(OC)c4)ccc3N(Cc3cncn3C)C[C@H]2Cc2ccc(-c3cccnc3)cc2)cc1          2.48
 5  CCCCCCNC(=O)c1ccc2c(c1)CN(S(=O)(=O)c1ccc(OC)cc1)[C@H](Cc1ccc(O)cc1)CN2Cc1cncn1C          3.59
 6  COc1ccc(S(=O)(=O)N2Cc3cc(-c4ccnc(OC)c4)ccc3N(Cc3cncn3C)C[C@H]2Cc2ccc(OC(=O)NCc3ccccc3)cc2)cc1          2.53
 7  COc1ccc(S(=O)(=O)N2Cc3cc(C#N)ccc3N(Cc3cncn3C)C[C@H]2Cc2ccc(O)cc2)cc1          2.06
 8  CCCCCCNC(=O)Oc1ccc(C[C@@H]2CN(Cc3cncn3C)c3ccc(C#N)cc3CN2S(=O)(=O)c2ccc(OC)cc2)cc1          1.89
 9  COc1ccc(S(=O)(=O)N2Cc3cc(C#N)ccc3N(Cc3cncn3C)C[C@H]2Cc2ccc(OCC=C(C)C)cc2)cc1          1.63
10  COc1ccc(S(=O)(=O)N2Cc3cc(C#N)ccc3N(Cc3cncn3C)C[C@H]2Cc2ccc(OC/C=C(\C)CCC=C(C)C)cc2)cc1          2.44
11  COc1ccc(S(=O)(=O)N2Cc3cc(C#N)ccc3N(Cc3cncn3C)C[C@H]2Cc2ccc(OC(=O)NCc3ccccc3)cc2)cc1          1.91
12  COc1ccc(S(=O)(=O)N2Cc3cc(-c4ccc(C=O)o4)ccc3N(Cc3cncn3C)C[C@H]2Cc2ccc(O)cc2)cc1          2.08
13  COc1ccc(S(=O)(=O)N2Cc3cc(C#N)ccc3N(Cc3cncn3C)C[C@H]2Cc2ccccc2)cc1          1.87
14  COc1ccc(S(=O)(=O)N2Cc3cc(-c4ccc(C=O)o4)ccc3N(Cc3cncn3C)C[C@H]2Cc2ccc(OC(=O)NCc3ccccc3)cc2)cc1          2.49
15  CCN(CC)C(=O)Oc1ccc(C[C@@H]2CN(Cc3cncn3C)c3ccc(C#N)cc3CN2S(=O)(=O)c2ccc(OC)cc2)cc1          2.54
16  COc1ccc(S(=O)(=O)N2Cc3cc(-c4ccc(C#N)o4)ccc3N(Cc3cncn3C)C[C@H]2Cc2ccc(OCc3ccccc3)cc2)cc1          2.33
17  CCCCOc1ccc(C[C@@H]2CN(Cc3cncn3C)c3ccc(C#N)cc3CN2S(=O)(=O)c2ccc(OC)cc2)cc1          2.49
18  COc1ccc(S(=O)(=O)N2Cc3cc(-c4ccc(C#N)o4)ccc3N(Cc3cncn3C)C[C@H]2Cc2ccc(OC(=O)NCc3ccccc3)cc2)cc1          1.69
